Provenance of the data: BigSolDB 2.1

- Experimental Parameters: in acetone, 308.15 K
Value Type: solubility (mole fraction)

Data request: Need solubility (mole fraction), item O=[N+]([O-])c1cccc2cccc([N+](=O)[O-])c12
Data returned: 0.0306

---

- Experimental Parameters: in ethyl acetate, 273.15 K
Value Type: solubility (mole fraction)
Answer using only a numeral; do not append any unit.

Data request: Need solubility (mole fraction), item O=[N+]([O-])c1cccc2cccc([N+](=O)[O-])c12
Data returned: 0.00414

---

- Experimental Parameters: in acetone, 305.65 K
Value Type: solubility (mole fraction)
Answer using only a numeral; do not append any unit.

Data request: Need solubility (mole fraction), item O=[N+]([O-])c1cccc2cccc([N+](=O)[O-])c12
Data returned: 0.028

---

- Experimental Parameters: in chloroform, 280.65 K
Value Type: solubility (mole fraction)

Data request: Need solubility (mole fraction), item O=[N+]([O-])c1cccc2cccc([N+](=O)[O-])c12
Data returned: 0.0042

---

- Experimental Parameters: in acetone, 291.15 K
Value Type: solubility (mole fraction)

Data request: Need solubility (mole fraction), item O=[N+]([O-])c1cccc2cccc([N+](=O)[O-])c12
Data returned: 0.0177

---

- Experimental Parameters: in n-butanol, 285.65 K
Value Type: solubility (mole fraction)
Answer using only a numeral; do not append any unit.

Data request: Need solubility (mole fraction), item O=[N+]([O-])c1cccc2cccc([N+](=O)[O-])c12
Data returned: 0.000314

---

- Experimental Parameters: in methanol, 285.65 K
Value Type: solubility (mole fraction)
Answer using only a numeral; do not append any unit.

Data request: Need solubility (mole fraction), item O=[N+]([O-])c1cccc2cccc([N+](=O)[O-])c12
Data returned: 0.000485

---

- Experimental Parameters: in acetone, 298.15 K
Value Type: solubility (mole fraction)
Answer using only a numeral; do not append any unit.

Data request: Need solubility (mole fraction), item O=[N+]([O-])c1cccc2cccc([N+](=O)[O-])c12
Data returned: 0.0223

---

- Experimental Parameters: in chloroform, 298.15 K
Value Type: solubility (mole fraction)
Answer using only a numeral; do not append any unit.

Data request: Need solubility (mole fraction), item O=[N+]([O-])c1cccc2cccc([N+](=O)[O-])c12
Data returned: 0.00787

---

- Experimental Parameters: in isopropanol, 273.15 K
Value Type: solubility (mole fraction)
Answer using only a numeral; do not append any unit.

Data request: Need solubility (mole fraction), item O=[N+]([O-])c1cccc2cccc([N+](=O)[O-])c12
Data returned: 8.97e-05

---

- Experimental Parameters: in acetonitrile, 303.15 K
Value Type: solubility (mole fraction)

Data request: Need solubility (mole fraction), item O=[N+]([O-])c1cccc2cccc([N+](=O)[O-])c12
Data returned: 0.012

---

- Experimental Parameters: in toluene, 298.15 K
Value Type: solubility (mole fraction)
Answer using only a numeral; do not append any unit.

Data request: Need solubility (mole fraction), item O=[N+]([O-])c1cccc2cccc([N+](=O)[O-])c12
Data returned: 0.00309

---

- Experimental Parameters: in acetonitrile, 293.15 K
Value Type: solubility (mole fraction)

Data request: Need solubility (mole fraction), item O=[N+]([O-])c1cccc2cccc([N+](=O)[O-])c12
Data returned: 0.00821

---

- Experimental Parameters: in isopropanol, 288.15 K
Value Type: solubility (mole fraction)
Answer using only a numeral; do not append any unit.

Data request: Need solubility (mole fraction), item O=[N+]([O-])c1cccc2cccc([N+](=O)[O-])c12
Data returned: 0.000224

---

- Experimental Parameters: in ethanol, 275.65 K
Value Type: solubility (mole fraction)
Answer using only a numeral; do not append any unit.

Data request: Need solubility (mole fraction), item O=[N+]([O-])c1cccc2cccc([N+](=O)[O-])c12
Data returned: 0.000267

---

- Experimental Parameters: in chloroform, 288.15 K
Value Type: solubility (mole fraction)

Data request: Need solubility (mole fraction), item O=[N+]([O-])c1cccc2cccc([N+](=O)[O-])c12
Data returned: 0.00561

---

- Experimental Parameters: in ethyl acetate, 275.65 K
Value Type: solubility (mole fraction)
Answer using only a numeral; do not append any unit.

Data request: Need solubility (mole fraction), item O=[N+]([O-])c1cccc2cccc([N+](=O)[O-])c12
Data returned: 0.00446

---

- Experimental Parameters: in acetonitrile, 295.65 K
Value Type: solubility (mole fraction)
Answer using only a numeral; do not append any unit.

Data request: Need solubility (mole fraction), item O=[N+]([O-])c1cccc2cccc([N+](=O)[O-])c12
Data returned: 0.00921

---

- Experimental Parameters: in ethyl acetate, 305.65 K
Value Type: solubility (mole fraction)
Answer using only a numeral; do not append any unit.

Data request: Need solubility (mole fraction), item O=[N+]([O-])c1cccc2cccc([N+](=O)[O-])c12
Data returned: 0.011

---

- Experimental Parameters: in ethyl acetate, 300.65 K
Value Type: solubility (mole fraction)
Answer using only a numeral; do not append any unit.

Data request: Need solubility (mole fraction), item O=[N+]([O-])c1cccc2cccc([N+](=O)[O-])c12
Data returned: 0.00947

---

- Experimental Parameters: in toluene, 288.15 K
Value Type: solubility (mole fraction)
Answer using only a numeral; do not append any unit.

Data request: Need solubility (mole fraction), item O=[N+]([O-])c1cccc2cccc([N+](=O)[O-])c12
Data returned: 0.00205

---

- Experimental Parameters: in n-butanol, 295.65 K
Value Type: solubility (mole fraction)
Answer using only a numeral; do not append any unit.

Data request: Need solubility (mole fraction), item O=[N+]([O-])c1cccc2cccc([N+](=O)[O-])c12
Data returned: 0.000504

---

- Experimental Parameters: in toluene, 278.15 K
Value Type: solubility (mole fraction)
Answer using only a numeral; do not append any unit.

Data request: Need solubility (mole fraction), item O=[N+]([O-])c1cccc2cccc([N+](=O)[O-])c12
Data returned: 0.00138

---

- Experimental Parameters: in ethanol, 305.65 K
Value Type: solubility (mole fraction)
Answer using only a numeral; do not append any unit.

Data request: Need solubility (mole fraction), item O=[N+]([O-])c1cccc2cccc([N+](=O)[O-])c12
Data returned: 0.000878

---

- Experimental Parameters: in n-butanol, 303.15 K
Value Type: solubility (mole fraction)
Answer using only a numeral; do not append any unit.

Data request: Need solubility (mole fraction), item O=[N+]([O-])c1cccc2cccc([N+](=O)[O-])c12
Data returned: 0.00069

---

- Experimental Parameters: in ethanol, 278.15 K
Value Type: solubility (mole fraction)
Answer using only a numeral; do not append any unit.

Data request: Need solubility (mole fraction), item O=[N+]([O-])c1cccc2cccc([N+](=O)[O-])c12
Data returned: 0.000294

---

- Experimental Parameters: in n-butanol, 305.65 K
Value Type: solubility (mole fraction)
Answer using only a numeral; do not append any unit.

Data request: Need solubility (mole fraction), item O=[N+]([O-])c1cccc2cccc([N+](=O)[O-])c12
Data returned: 0.000759

---

- Experimental Parameters: in n-butanol, 273.15 K
Value Type: solubility (mole fraction)

Data request: Need solubility (mole fraction), item O=[N+]([O-])c1cccc2cccc([N+](=O)[O-])c12
Data returned: 0.000155

---

- Experimental Parameters: in isopropanol, 275.65 K
Value Type: solubility (mole fraction)
Answer using only a numeral; do not append any unit.

Data request: Need solubility (mole fraction), item O=[N+]([O-])c1cccc2cccc([N+](=O)[O-])c12
Data returned: 0.000103

---

- Experimental Parameters: in ethanol, 300.65 K
Value Type: solubility (mole fraction)
Answer using only a numeral; do not append any unit.

Data request: Need solubility (mole fraction), item O=[N+]([O-])c1cccc2cccc([N+](=O)[O-])c12
Data returned: 0.00071

---

- Experimental Parameters: in methanol, 298.15 K
Value Type: solubility (mole fraction)
Answer using only a numeral; do not append any unit.

Data request: Need solubility (mole fraction), item O=[N+]([O-])c1cccc2cccc([N+](=O)[O-])c12
Data returned: 0.000758

---

- Experimental Parameters: in ethyl acetate, 295.65 K
Value Type: solubility (mole fraction)
Answer using only a numeral; do not append any unit.

Data request: Need solubility (mole fraction), item O=[N+]([O-])c1cccc2cccc([N+](=O)[O-])c12
Data returned: 0.00822

---

- Experimental Parameters: in n-butanol, 278.15 K
Value Type: solubility (mole fraction)
Answer using only a numeral; do not append any unit.

Data request: Need solubility (mole fraction), item O=[N+]([O-])c1cccc2cccc([N+](=O)[O-])c12
Data returned: 0.00021

---

- Experimental Parameters: in n-butanol, 291.15 K
Value Type: solubility (mole fraction)
Answer using only a numeral; do not append any unit.

Data request: Need solubility (mole fraction), item O=[N+]([O-])c1cccc2cccc([N+](=O)[O-])c12
Data returned: 0.000411

---

- Experimental Parameters: in isopropanol, 291.15 K
Value Type: solubility (mole fraction)
Answer using only a numeral; do not append any unit.

Data request: Need solubility (mole fraction), item O=[N+]([O-])c1cccc2cccc([N+](=O)[O-])c12
Data returned: 0.000265
